# assay-summary: Primary qHTS for delayed death inhibitors of the malarial parasite plastid, 48 hour incubation
# condition: P. falciparum luciferase growth in erythrocytes; series mostly up to 28.7 µM
The whole screen tested about 310,000 compounds, of which about 18,000 (5.8%) were called active. Another 22% or so got no clear call; they are omitted. Shown is part of a subset that was picked to be rich in actives.
measure: outcome

> print(dat)
                                   molecule  recorded.result
1  O=C(NCC1CCCO1)c1ccc(S(=O)(=O)Nc2ccc(F)cc2)cc1 (stereo not drawn)         inactive
2  CCCCN(C(=O)c1ccc(S(=O)(=O)N2CCOCC2)cc1)C1CCS(=O)(=O)C1 (stereo not drawn)         inactive
3  CN(C)S(=O)(=O)c1ccc(C(=O)NCC2(N3CCOCC3)CCCCC2)cc1         inactive

----------
# assay-summary: Primary qHTS for delayed death inhibitors of the malarial parasite plastid, 48 hour incubation; as to activity change, negative = inhibition: % is scaled to controls: 0 for no effect and ±100 for the full control effect
# condition: P. falciparum luciferase growth in erythrocytes; series mostly up to 28.7 µM
Screen size: about 310,000 compounds; about 18,000 (5.8%) were called active. Not shown: some 22% with an inconclusive outcome. The list comes from a sample in which actives are over-represented; it also holds close analogues and randomly drawn compounds.
Reported activity change, negative = inhibition by item:

Worked examples follow.
> print(dat)
                                   compound                    recorded.result
1  O=C(CC(n1cncn1)C(Cl)(Cl)Cl)c1ccc([N+](=O)[O-])cc1 (centres undefined)  -32.2% [at 0.00184 µM] (inactive)
2             O=C(Cc1ccc(Br)cc1)NCCN1CCOCC1   5.97% [at 0.00184 µM] (inactive)
3  COc1ccc(OC)c(NC(=O)c2ccc3c(c2)C(=O)N(c2ccc(OC(C)=O)cc2)C3=O)c1  0.907% [at 0.00184 µM] (inactive)

Read the next record carefully.
// field: activity change, negative = inhibition; key: CCCCCCC(O)(CCN1CCCCC1)c1ccccc1 (centres undefined) ; value = 11.4% [at 0.00184 µM] (inactive)

----------
# assay-summary: Primary qHTS for delayed death inhibitors of the malarial parasite plastid, 48 hour incubation
# condition: P. falciparum luciferase growth in erythrocytes; series mostly up to 28.7 µM
Among all 310,000 compounds or so, about 18,000 (5.8%) were called active. Not shown: some 22% with an inconclusive outcome. Calls come from the whole dose curve; as a rule, active = well fitted inhibition curve with a large enough effect; inconclusive = small, poorly fitted or top-dose-only effect, or another doubt; inactive = no such curve, though single readings can be large or run the other way. The list comes from a sample in which actives are over-represented; it also holds close analogues and randomly drawn compounds.
I would appreciate it if you answered using one of these outcomes: YES (active), NO (inactive)

Reference set (8 entries):
> print(dat)
                                   compound  class.label
1  COc1ccccc1NC(=O)CCN1CCN(c2ccc(Cl)cc2)CC1           NO
2   Cc1occc1-c1nnc(SCC(=O)NC2(C#N)CCCC2)n1C           NO
3  Cc1nc(C)c(-c2nnc(-c3cccc(S(=O)(=O)N(C)C)c3)o2)cc1C(=O)NN           NO
4  CC(=O)N1CCc2c(sc(NC(=O)CCS(=O)(=O)c3ccc(C)cc3)c2C(N)=O)C1           NO
5                 c1ccc2sc(SNC3CCCCC3)nc2c1           NO
6  COc1cc(C(CCN2CCN(c3ccccc3)CC2)c2c(OC)cc(OC)c3ccc(=O)oc23)cc(OC)c1OC (centres undefined)          YES
7  Cc1ccccc1N1CCN(CCCN2C(=O)C3CCCCN3C2=O)CC1 (centres undefined)           NO
8  COc1ccccc1N1CCN(Cc2cc(OC)c3c(c2)OCO3)CC1           NO

Problem: So what was the verdict on CC(CC(=O)N1CCN(S(=O)(=O)c2ccccc2)CC1)n1cncn1 (centres undefined) in this test?
Solution: NO

Problem: So what was the verdict on Cc1sc2ncnc(Sc3nc4ccccc4s3)c2c1C in this test?
Solution: YES

Problem: So what was the verdict on CCN(CC)C(=O)C(=O)Nc1cccc(Br)c1 in this test?
Solution: NO

Problem: So what was the verdict on COCCOC(=O)C1=C(C)Nc2nc(C)nn2C1c1ccccc1 (centres undefined) in this test?
Solution: NO

Problem: So what was the verdict on CCOc1ccc2[nH]c(C(=O)N/N=C/c3cccc(OC)c3OC)cc2c1 in this test?
Solution: NO

Problem: So what was the verdict on COc1ccccc1-c1sc2ccccc2c1-c1ccc(C(C)=O)cc1 in this test?
Solution: NO

----------
# assay-summary: Primary qHTS for delayed death inhibitors of the malarial parasite plastid, 48 hour incubation; also: potency is read from the fitted curve at half-maximal effect
# condition: P. falciparum luciferase growth in erythrocytes; series mostly up to 28.7 µM
# Description: The goal of this screen is to discover new antimalarial compounds that act by inhibiting the development of the apicoplast in the malarial parasite Plasmodium falciparum. […] We have developed a cell-based assay that measures parasite growth based on the expression of an integrated copy of a firefly luciferase reporter. […] Growth inhibition is detected by a decrease in luciferase activity. […]
The whole screen tested about 310,000 compounds, of which about 18,000 (5.8%) were called active. Inconclusive results (about 22%) are left out. The list comes from a sample in which actives are over-represented; it also holds close analogues and randomly drawn compounds.
measure: Potency

> print(dat)
                                   compound   recorded.result
1  CNC(=O)NC(=O)C(C)N1CCN(C/C=C/c2ccccc2)CC1 (configuration not stated)          inactive
2  Cc1ccc(CN2C(=O)CCC2C(=O)NCCCN2CCCCC2C)cc1 (configuration not stated)          inactive
3   CCN(CC(=O)NCCc1ccccc1)S(=O)(=O)c1ccccc1          inactive
4  CCN(CC)S(=O)(=O)c1ccc2[nH]cc(C(=O)NCCc3ccccc3)c(=O)c2c1  13.1 µM (active)
5  COc1ccc(S(=O)(=O)N2CCC(C(=O)NCCC(=O)NCc3cccc(OC)c3)CC2)cc1          inactive
6  COc1cc(C(=O)N2CCN(C/C=C/c3ccccc3)CC2)cc(OC)c1C  10.4 µM (active)

Read the next record carefully.
// field: Potency; key: CCCCNC(=O)c1c[nH]c2ccc(S(=O)(=O)Nc3ccc(OCC)cc3)cc2c1=O ; value = inactive

----------
# assay-summary: Primary qHTS for delayed death inhibitors of the malarial parasite plastid, 48 hour incubation
# condition: P. falciparum luciferase growth in erythrocytes; series mostly up to 28.7 µM
Hit rate of the full screen: of about 310,000 compounds, about 18,000 (5.8%) were called active. Another 22% or so got no clear call; they are omitted. Calls come from the whole dose curve; as a rule, active = well fitted inhibition curve with a large enough effect; inconclusive = small, poorly fitted or top-dose-only effect, or another doubt; inactive = no such curve, though single readings can be large or run the other way. Only a selection was taken, and actives are over-represented in it overall.
I would appreciate it if you answered using one of these outcomes: YES (active), NO (inactive)

Reference set (2 entries):
> print(dat)
                                   molecule  class.label
1  CCC(c1nnc(SCC(=O)NNC(=O)c2ccccc2)n1Cc1ccccc1)N(C)C (stereo not drawn)           NO
2  COc1ccc(NC(=S)N2CCC(NC(=O)c3cccc(F)c3)CC2)cc1           NO

Problem: So what was the verdict on Cc1cccn2c(=O)nc(SCC(=O)NCc3ccccc3Cl)nc12 in this test?
Solution: NO

Problem: So what was the verdict on COc1ccc(C(=O)CCC(=O)Nc2ccc(Cl)cc2)cc1 in this test?
Solution: NO

Problem: So what was the verdict on Cc1nnc(N/N=C/c2ccccn2)[nH]c1=O in this test?
Solution: YES

Problem: So what was the verdict on CCc1nn(CC(=O)N2CCN(CC)CC2)c(=O)c2cccn12 in this test?
Solution: NO

Problem: So what was the verdict on Cc1ccc(O)c(NC(=S)NC(=O)COc2ccc(Br)cc2)c1 in this test?
Solution: NO

Problem: So what was the verdict on COc1ccc(CCNC(=O)CN(c2ccccc2)S(C)(=O)=O)cc1OC in this test?
Solution: NO

----------
# assay-summary: Primary qHTS for delayed death inhibitors of the malarial parasite plastid, 48 hour incubation; also: potency is read from the fitted curve at half-maximal effect
# condition: P. falciparum luciferase growth in erythrocytes; series mostly up to 28.7 µM
Screen size: about 310,000 compounds; about 18,000 (5.8%) were called active. Another 22% or so got no clear call; they are omitted. This is one part of a sample in which actives are shown more often than they occur.
measure: Potency

Worked examples follow.
> print(dat)
                                   compound  measure  recorded.result
1  CCCn1c(=O)c(C(=O)Nc2cc(C)ccn2)c(O)c2ccccc21  Potency         inactive
2  OCC[C@H]1C[C@@H](O)[C@H](O)[C@@]2(OCCc3ccccc32)O1  Potency         inactive
3  COc1ccc(C(=O)NC(C)Cn2nc(C)cc2C)cc1OC1CCN(C(C)=O)CC1 (stereo not drawn)  Potency         inactive
4  Cc1ccc(S(=O)Cc2ccc(C(=O)N3CCN(C4CCCCC4)CC3)o2)cc1 (stereo not drawn)  Potency         inactive
5    COc1cc(OC)cc(C(=O)NCCSCc2ccc(Cl)cc2)c1  Potency         inactive

// field: Potency; key: Cc1ccc2nc(N(CCN(C)C)C(=O)C3=COCCO3)sc2c1 ; value = inactive

// field: Potency; key: COc1ccc(-c2cc(C(=O)NC(Cc3c[nH]c4ccccc34)C(=O)O)c(C)o2)cc1OC (stereo not drawn) ; value = inactive

// field: Potency; key: CCOC(=O)C1CCN(C(=O)COC(=O)C2CCN(S(=O)(=O)c3ccc4c(c3)OCCO4)CC2)CC1 ; value = 13.1 µM (active)

// field: Potency; key: CC(C(=O)NC1CCCCC1)N1C(=O)c2cccc3cccc1c23 (stereo not drawn) ; value = inactive

// field: Potency; key: Cc1ccc(OCCNC(=O)CNC(=O)c2ccc(C)c(C)c2)cc1 ; value = inactive

// provenance: PubChem BioAssay AID504832
